B1: TPR 5TU (parent)
chain: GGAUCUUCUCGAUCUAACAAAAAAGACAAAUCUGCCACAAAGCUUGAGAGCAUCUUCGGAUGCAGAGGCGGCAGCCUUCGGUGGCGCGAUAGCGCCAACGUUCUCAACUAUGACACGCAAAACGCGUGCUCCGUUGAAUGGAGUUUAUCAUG

Variants of: B1
Assay Notes: polymerase ribozyme fitness, log enrichment relative to wild type (log ratio); higher = more active; in vitro selection for triplet polymerase activity
Fewer inactive variants are shown than the library holds.
Provide the reported polymerase ribozyme fitness (log ratio) of each item.
Lab note: record just the number, no unit beside it.

Can you look up the measured polymerase ribozyme fitness (log ratio) of G25C U31A C96G for me?
-1.31

Can you look up the measured polymerase ribozyme fitness (log ratio) of G50C C118U for me?
-3.01

Can you look up the measured polymerase ribozyme fitness (log ratio) of U56A C57A U144A for me?
-0.177

Can you look up the measured polymerase ribozyme fitness (log ratio) of U31C C95G for me?
-0.224

Can you look up the measured polymerase ribozyme fitness (log ratio) of U55A A115G G124U for me?
-0.932

Can you look up the measured polymerase ribozyme fitness (log ratio) of U15A U145C for me?
0.0727

Can you look up the measured polymerase ribozyme fitness (log ratio) of A3G U13G U144C for me?
0.104

Can you look up the measured polymerase ribozyme fitness (log ratio) of G59A C99A G140U for me?
-3.99
